Kd for assorted binders
- Experimental Target: T1, EsCas13d, nuclease-dead (Eubacterium siraeum, UniProt B0MS50, R295A;H300A;R849A;H854A)
- T1 sequence: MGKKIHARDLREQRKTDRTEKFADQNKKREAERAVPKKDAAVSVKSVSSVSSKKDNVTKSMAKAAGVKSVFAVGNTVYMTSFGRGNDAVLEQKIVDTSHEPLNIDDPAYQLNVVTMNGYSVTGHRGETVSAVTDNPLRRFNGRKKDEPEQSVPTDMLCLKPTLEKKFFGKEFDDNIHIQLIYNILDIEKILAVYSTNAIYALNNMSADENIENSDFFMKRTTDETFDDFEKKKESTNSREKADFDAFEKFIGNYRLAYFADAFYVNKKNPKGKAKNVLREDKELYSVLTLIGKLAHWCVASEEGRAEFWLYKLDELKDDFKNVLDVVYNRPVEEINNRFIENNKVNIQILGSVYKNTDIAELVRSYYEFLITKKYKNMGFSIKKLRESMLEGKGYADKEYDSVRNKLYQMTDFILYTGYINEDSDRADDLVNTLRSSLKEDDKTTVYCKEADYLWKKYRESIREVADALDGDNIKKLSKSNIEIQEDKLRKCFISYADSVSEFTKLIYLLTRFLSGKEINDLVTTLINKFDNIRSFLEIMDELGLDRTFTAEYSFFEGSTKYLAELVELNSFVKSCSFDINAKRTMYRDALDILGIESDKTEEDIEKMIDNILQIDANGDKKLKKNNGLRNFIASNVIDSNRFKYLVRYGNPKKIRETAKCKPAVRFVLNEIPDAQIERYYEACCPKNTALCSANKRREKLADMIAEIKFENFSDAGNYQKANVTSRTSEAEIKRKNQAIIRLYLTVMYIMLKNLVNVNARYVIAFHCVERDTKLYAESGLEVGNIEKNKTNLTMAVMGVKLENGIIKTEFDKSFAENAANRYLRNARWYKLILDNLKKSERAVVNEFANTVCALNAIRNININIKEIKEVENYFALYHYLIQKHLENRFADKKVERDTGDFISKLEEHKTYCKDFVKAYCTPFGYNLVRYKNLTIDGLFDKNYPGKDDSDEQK
- Test Details: crRNA (strand 1, pre-loaded); Mg2+; 40 mM Tris-HCl pH 7.5, 150 mM NaCl, 6 mM MgCl2, 1 mM DTT, 0.1% Tween-20, 0.2 mg/ml BSA; 25 C; 10 min per concentration, then washed
- Condition Info: tags: His6-TwinStrep-SUMO cleaved; N-terminal SNAP kept (SNAP-Surface 488); label: 3' end held by stalled T7 RNA polymerase
Give just the number in nM; leave the unit off.

Looking for the measured Kd of target 3 U2A,C6A (mixed) RNA 1: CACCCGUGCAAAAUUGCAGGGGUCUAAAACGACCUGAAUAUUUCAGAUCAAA RNA 2: GGGAAUGGAUCCACAUCUACGAAUUCGUUUUUGAUCUGAAAUAUUAAGGACUGCAGAUCGGAAGAGCACACGU , can you help?
15.6

Looking for the measured Kd of target 2 MT 5'PFS GGG 3'PFS CGA (mixed) RNA 1: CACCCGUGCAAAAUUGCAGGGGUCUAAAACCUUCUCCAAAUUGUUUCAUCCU RNA 2: GGGAAUGGAUCCACAUCUACGAAUUCGGGAGGAUGAAACAAUUUGGAGAAGCGAAGAUCGGAAGAGCACACGU , can you help?
8.2
